Value source: PubChem BioAssay (NCI)

# System: UACC-257 melanoma
# assay.remarks: NCI-60 one-dose screen, 48 h
# experimental.conditions: 10 µM
This is part of a sample that, as a whole, favours compounds with a hit. Of some 83,000 tested, about 20% had one in any assay. Calls of active or inactive are those of the source. Rule for the calls: active = growth percent below 10; inactive = the rest.
Classes used: active, inactive

CCCCCc1ccc(S(=O)(=O)Nc2cc(-c3csc(N(C)C(C)=O)n3)ccc2N2CCN(C)CC2)cc1 | active
CC1=N/C(=C\c2ccc(N(C)C)cc2)C(=O)N1CCc1ccc(S(N)(=O)=O)cc1 | inactive
O=C(CNc1nc(-c2ccccc2)cs1)Nc1ccc(Cl)cc1 | active
COc1cc2c(cc1OC)/C(=C\c1sc(Nc3ccc(O)cc3)nc1O)C(C(=O)O)=N2 | inactive
O=C(c1ccc(Cl)cc1)C1[C@H](c2ccc(Br)cc2)[C@@H](c2ccccc2)NC12C(=O)Nc1ccccc12 (some centres undefined) | active
O=C1CCC(N2Cc3cc(NC(=O)COc4ccccc4)ccc3C2=O)C(=O)N1 (centres undefined) | inactive
CN1CCN(c2ccc(Nc3nc(NCCNC(=O)c4ccc(C(F)(F)F)cc4)c4sccc4n3)cc2)CC1 | active
COc1cc(C2CC(c3ccc(C)cc3)=Nc3c(N)nc(N)nc3N2)ccc1Oc1nc(Nc2ccc(F)cc2)nc(N(C)C)n1 (centres undefined) | inactive
N#Cc1c(NC(=O)c2cccc(C(F)(F)F)c2)sc2c1CCC(O)=C2 | inactive
CN1CCc2c(sc3ncnc(N/N=C/c4ccc5ccccc5c4)c23)C1 | inactive
COc1cc2c(cc1OC)CN(CCCCOc1cc(O)c3c(=O)cc(-c4ccccc4)oc3c1)CC2 | active
COc1ccc(-c2ccc(SCC(=O)Nc3ccc(C#N)cc3)nn2)cc1 | inactive
COc1ccc2[nH]c(=O)c(CSc3nccc(-c4ccc(Cl)cc4)n3)cc2c1 | active
COc1ccc(CN2[C@H](C(=O)NCc3ccc(C(=O)NO)cc3)Cc3c([nH]c4ccccc34)[C@H]2C2CC2)cc1 | inactive
C/C(=N\NC(N)=S)c1ccc(Nc2nc(SC(C)C)nc(-c3ccccc3)c2C#N)cc1 | inactive
N#Cc1c(NC(=O)c2ccc(C(F)(F)F)cc2)sc2c1CCC(O)=C2 | inactive
COc1ccc(-c2cc(-c3cc(C(=O)c4ccccc4)n4ccc(C)cc34)nc(N)c2C#N)cc1 | inactive
O=C(Cc1ccc2c(c1)CN(C1CCC(=O)NC1=O)C2=O)NCCc1ccccc1 (centres undefined) | inactive
Cc1ccc(F)cc1N/C=c1\s/c(=C(\C#N)C(=O)Nc2ccccc2)n(-c2ccccc2)c1=O | inactive
CC(=C(c1ccc(OCCN2CCCCC2)cc1)c1ccc(OCCN2CCCCC2)cc1)c1ccccc1 | active
CN1CCN(c2ccc(C(=O)/C=C/c3cc(Br)ccc3F)cc2)CC1 | inactive
O=C(Nc1ccccc1)Nc1nc2ccccc2s1 | inactive
Cc1noc2c(Cc3ccccc3)nn(CC(=O)N/N=C/c3ccc(F)cc3)c(=O)c12 | inactive
CCC(C)S(=O)(=O)c1oc(-c2ccc(C)cc2)nc1S(=O)(=O)c1ccccc1 (centres undefined) | active
O=C(/C=C/Nc1ccccc1)c1ccc2c(c1)Nc1ccccc1S2 | inactive
Cc1ccc(C(=O)N/C(=C2/OCCN2C)[P+](c2ccccc2)(c2ccccc2)c2ccccc2)cc1 | inactive
COc1cc2oc(-c3cccc(C(=O)Nc4ccc(Cl)cc4)c3)cc(=O)c2c(OCCNC(=O)CNC(=O)OC(C)(C)C)c1OC | inactive
O=c1oc2ccc(-c3ccc(F)cc3F)cc2c(=O)n1-c1ccc(F)cc1 | inactive
CC1(c2ccccc2)NC(=O)N(CC(=O)Nc2ccc(C(=O)/C=C/c3ccc(Br)cc3)cc2)C1=O (centres undefined) | inactive
CCCn1c(=O)c2[nH]c(-c3ccc(OCc4nc5ccc(C(F)(F)F)cc5[nH]4)cc3)nc2n(CCC)c1=O | inactive
Cc1ccc(/C=C/C(=O)c2ccc(NC(=O)CSc3nnc(-c4c[nH]c5ccccc45)n3-c3ccccc3)cc2)c(C)c1 | inactive
CN1CCc2c(sc3ncnc(N/N=C/c4cn(-c5ccccc5)nc4-c4ccc(Br)cc4)c23)C1 | inactive
O=C(COc1ccc(NC(=O)Nc2ccc(Cl)cc2)cc1)N=Nc1c(O)[nH]c2ccc([N+](=O)[O-])cc12 | inactive
COc1ccccc1[C@H]1C(C(=O)c2ccc(Cl)cc2)C2(N[C@@H]1c1ccccc1)C(=O)Nc1ccc(Cl)cc12 (some centres undefined) | inactive
